Hello, the source for this data is PubChem BioAssay, in case you need it.

- Assay details: CREB reporter modulators under forskolin, primary screen, cell-based, PC12, CRE-LacZ reporter, forskolin-stimulated (AID 1146);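 note: PC12 cells with 6xCRE LacZ reporter stimulated by forskolin 10 µM; beta-galactosidase reporter signal reflecting CREB driven transcription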
- Measurement context: luminescence, 4.5 h, higher = more signal, called active from +8 up or from −8 down
Documented z-score across a set of compounds
Form field (numeric): enter value without unit.

The cases that follow already have their z-score on record.
# Compound, z-score
records = [
    ("COC(=O)[C@@]1(Cc2ccc(OC)cc2)[C@@H]2[C@@H](CC(=O)[C@H]2CC(=O)C(=O)N2CCCC2)CN1C(=O)c1ccccc1", -0.013),
    ("COc1cccc(OC)c1C(=O)O[C@H]1[C@@H]2OC(=O)[C@H](Cc3cccc(Br)c3)C/C=C/C[C@@H](Cc3cccc(Br)c3)C(=O)O[C@H]2[C@@H](OC)O[C@@H]1CO", -0.201),
    ("COCCCNC(=O)[C@@H]1c2ccccc2C(=O)N(Cc2cc(C(F)(F)F)cc(C(F)(F)F)c2)[C@H]1c1ccc(CO)cc1", -0.613),
]

# query: z-score of entry CCOC(=O)C1=CCC(c2cc3ccccc3[nH]2)N(S(=O)(=O)c2ccccc2[N+](=O)[O-])C1 (centres undefined)
-0.0943
